molecular target: Epidermal growth factor receptor (Homo sapiens, UniProt P00533, L858R); assay: Binding affinity to human partial length EGFR (R669 to V1011 residues) L858R mutant expressed in bacterial expression system assessed as immobilized ligand binding by competitive binding assay
Sequence (P00533 25-1210 L858R limits assumed): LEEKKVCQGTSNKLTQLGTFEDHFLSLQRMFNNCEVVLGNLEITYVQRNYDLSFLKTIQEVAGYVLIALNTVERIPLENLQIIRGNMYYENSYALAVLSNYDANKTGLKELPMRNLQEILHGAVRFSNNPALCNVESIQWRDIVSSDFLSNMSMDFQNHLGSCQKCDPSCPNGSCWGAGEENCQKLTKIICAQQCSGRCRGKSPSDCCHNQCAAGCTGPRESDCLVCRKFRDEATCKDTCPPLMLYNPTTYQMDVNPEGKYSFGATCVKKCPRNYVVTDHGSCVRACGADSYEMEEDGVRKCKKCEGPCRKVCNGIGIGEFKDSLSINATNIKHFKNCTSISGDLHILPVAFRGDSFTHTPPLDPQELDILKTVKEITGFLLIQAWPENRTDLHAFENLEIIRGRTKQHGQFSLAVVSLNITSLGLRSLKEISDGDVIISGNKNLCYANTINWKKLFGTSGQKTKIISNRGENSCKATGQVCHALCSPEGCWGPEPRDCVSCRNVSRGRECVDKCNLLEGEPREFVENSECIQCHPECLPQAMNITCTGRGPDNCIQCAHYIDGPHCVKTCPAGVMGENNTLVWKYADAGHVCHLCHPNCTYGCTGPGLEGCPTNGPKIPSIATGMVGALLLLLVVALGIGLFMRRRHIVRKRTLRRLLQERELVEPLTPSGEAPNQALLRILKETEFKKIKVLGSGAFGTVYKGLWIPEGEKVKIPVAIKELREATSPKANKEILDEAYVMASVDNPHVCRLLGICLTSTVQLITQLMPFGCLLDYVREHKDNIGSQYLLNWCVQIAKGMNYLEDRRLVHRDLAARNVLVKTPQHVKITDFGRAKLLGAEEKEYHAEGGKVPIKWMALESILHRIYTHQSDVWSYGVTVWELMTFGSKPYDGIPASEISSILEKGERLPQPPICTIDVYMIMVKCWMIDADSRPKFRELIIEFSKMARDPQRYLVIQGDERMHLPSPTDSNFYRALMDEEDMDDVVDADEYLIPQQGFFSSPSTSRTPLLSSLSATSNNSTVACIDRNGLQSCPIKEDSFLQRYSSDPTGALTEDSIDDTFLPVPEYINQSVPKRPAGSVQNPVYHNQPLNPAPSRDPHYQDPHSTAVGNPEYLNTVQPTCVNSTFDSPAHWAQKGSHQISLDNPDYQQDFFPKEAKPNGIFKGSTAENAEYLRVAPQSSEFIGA
endpoint.name: Kd (nM)
Numbers only; they are read as nM.

Return Kd (reported value) for this compound: COc1cc2ncnc(Nc3ccc(F)c(Cl)c3)c2cc1OCCCN1CCN(C(=O)CCOCCOCCOCCOCCOCCNc2ccc3c(c2)C(=O)N(C2CCC(=O)N(C)C2=O)C3=O)CC1 (stereo unspecified)
2.9

* * *

endpoint.name: Kd
Mention the unit after the number when you answer.

Give Kd; test system Epidermal growth factor receptor (Homo sapiens); compound COc1cc2ncnc(Nc3ccc(F)c(Cl)c3)c2cc1OCCCN1CCN(C(=O)CCOCCOCCOCCOCCOCCNc2ccc3c(c2)C(=O)N(C2CCC(=O)N(C)C2=O)C3=O)CC1 (stereo unspecified)
6.4 nM
